System: CCRIS mutagenicity, Ames/micronucleus/aberration tests
Assay: CCRIS mutagenicity studies
Conditions: Test System: AMES SALMONELLA TYPHIMURIUM; Strain/Indicator: TA102; Metabolic Activation: NONE; Method: STANDARD PLATE
Active and inactive are the calls of the source. No rule for the calls is given here.
observationType: mutagenic call

>>> result("CCOCCO")
"inactive; negative"
>>> result("O=S(=O)(c1ccc(Cl)cc1)c1cc(Cl)c(Cl)cc1Cl")
"inactive; negative"
>>> result("CC1=CCC(O)(C(C)C)CC1 (stereo not drawn)")
"inactive; negative"
>>> result("Cc1c(N)nc(C(CC(N)=O)NCC(N)C(N)=O)nc1C(=O)NC(C(=O)NC(C)C(O)C(C)C(=O)NC(C(=O)NCCc1nc(-c2nc(C(=O)NCCC[S+](C)C)cs2)cs1)C(C)O)C(O[C@@H]1O[C@@H](CO)[C@@H](O)[C@H](O)[C@@H]1O[C@H]1O[C@H](CO)[C@@H](O)[C@H](OC(N)=O)[C@@H]1O)c1cnc[nH]1 (stereo partly drawn)")
"active; positive"

Measured mutagenic call, O=C(O)[C@@H]1CSCN1 : inactive; negative

Measured mutagenic call, CC[C@@]1(O)C[C@H](O[C@H]2C[C@H](N(C)C)[C@H](O)[C@H](C)O2)c2c(cc3c(c2O)C(=O)c2c(O)cccc2C3=O)[C@H]1C(=O)OC : active; positive

Measured mutagenic call, CC1(C)CC[C@]2(C(=O)O)CC[C@]3(C)C(=CC[C@@H]4[C@@]5(C)C[C@H](O)[C@H](O)[C@@](C)(C(=O)O)[C@@H]5CC[C@]43C)[C@@H]2C1 : inactive; negative

Measured mutagenic call, CCOc1ccc(C(C)(C)C)cc1NC(=O)C(=O)Nc1ccccc1CC : inactive; negative

Measured mutagenic call, CC(=O)O[C@H]1CC[C@@]2(C)C(=CC[C@H]3[C@@H]4CC[C@H]([C@H](C)CCCC(C)C)[C@@]4(C)CC[C@@H]32)C1 : inactive; negative

Measured mutagenic call, C[C@]12CC[C@H](OC(=O)Cc3ccc(N(CCCl)CCCl)cc3)C[C@@H]1CC[C@@H]1[C@@H]2CC[C@]2(C)NC(=O)CC[C@@H]12 : active; positive

Measured mutagenic call, O=BOO : active; positive

Measured mutagenic call, CCN(CCCl)c1ccc(CCCNc2c3ccccc3nc3ccccc23)cc1 : inactive; negative

---

System: CCRIS mutagenicity, Ames/micronucleus/aberration tests
Experiment: CCRIS mutagenicity studies
Settings: Test System: AMES SALMONELLA TYPHIMURIUM; Strain/Indicator: TA100; Metabolic Activation: RAT, LIVER, S-9, PHENOBARBITAL; Method: STANDARD PLATE
The source made the active and inactive calls. No rule for the calls is given here.
Thanks in advance; please answer with one of these: label 1 (active), label 0 (inactive)

I'd appreciate the recorded outcome for CCOC(=O)NNc1nncc2ccccc12 from this test.
label 1

I'd appreciate the recorded outcome for c1ccc(-c2ccncc2)nc1 from this test.
label 0

I'd appreciate the recorded outcome for CO[C@]1(CC[C@@H](C)CO[C@@H]2O[C@H](CO)[C@@H](O)[C@H](O)[C@H]2O)O[C@H]2C[C@H]3[C@@H]4CC=C5C[C@@H](O[C@@H]6O[C@H](CO)[C@@H](O[C@@H]7O[C@@H](C)[C@H](O)[C@@H](O)[C@H]7O)[C@H](O)C6O[C@@H]6O[C@@H](C)[C@H](O)[C@@H](O)[C@H]6O)CC[C@]5(C)[C@H]4CC[C@]3(C)[C@H]2[C@@H]1C (stereo partly drawn) from this test.
label 0

I'd appreciate the recorded outcome for C[n+]1cccc(-c2ccc[n+](C)c2)c1 from this test.
label 1

I'd appreciate the recorded outcome for c1cc(-c2cc3ccc(C4=NCCN4)cc3[nH]2)ccc1C1=NCCN1 from this test.
label 0

I'd appreciate the recorded outcome for O=P(O)(O)O from this test.
label 0

I'd appreciate the recorded outcome for Nc1c(N=Nc2ccc([N+](=O)[O-])cc2)c(S(=O)(=O)O)cc2c1C(=O)/C(=N\Nc1ccc(-c3ccc(NN=C4C=CC(=O)C=C4)cc3)cc1)C(S(=O)(=O)O)=C2 from this test.
label 0

I'd appreciate the recorded outcome for N=C(N)c1ccc(-c2cc3ccc(C(=N)N)cc3[nH]2)cc1 from this test.
label 0

---

Tested on: CCRIS mutagenicity, Ames/micronucleus/aberration tests
Experiment: CCRIS mutagenicity studies
Conditions: Test System: E. COLI; Strain/Indicator: WP2 UVRA; Metabolic Activation: NONE; Method: STANDARD PLATE
Description: The CCRIS database contains chemical records with carcinogenicity, mutagenicity, tumor promotion, and tumor inhibition test results. It was developed by the National Cancer Institute (NCI). Data are derived from studies cited in primary journals, current awareness tools, NCI reports, and other sources. Test results have been reviewed by experts in carcinogenesis and mutagenesis. CCRIS provides historical information from the years 1985 - 2011. It is no longer updated. […]
Activity calls are given as the source filed them. How the calls were made is not given here.
Thanks in advance; please answer with one of these: active, inactive

I'd appreciate the recorded outcome for CCc1cccc2c(CCO)c[nH]c12 from this test.
inactive

I'd appreciate the recorded outcome for Cc1noc(NS(=O)(=O)c2ccc(N)cc2)c1C from this test.
inactive

I'd appreciate the recorded outcome for COc1ccc(C(c2ccc(OC)cc2)C(Cl)(Cl)Cl)cc1 from this test.
inactive

I'd appreciate the recorded outcome for O=P(OCC(Br)CBr)(OCC(Br)CBr)OCC(Br)CBr (configuration not stated) from this test.
inactive

I'd appreciate the recorded outcome for COC(=O)Nc1nc2ccc(OS(=O)(=O)c3ccc(F)cc3)cc2[nH]1 from this test.
inactive

I'd appreciate the recorded outcome for CSCCC(=O)N1[C@@H](c2ccccc2O)SC[C@H]1C(=O)O from this test.
inactive

I'd appreciate the recorded outcome for COc1ccc(C)cc1N from this test.
inactive

I'd appreciate the recorded outcome for COc1cc(CCC(C)=O)ccc1O from this test.
inactive

I'd appreciate the recorded outcome for CCN(CC)CCCC(C)Nc1c2ccc(Cl)cc2nc2ccc(OC)cc12 (configuration not stated) from this test.
active

I'd appreciate the recorded outcome for CC(C)c1c(C(=O)Nc2ccccc2)c(-c2ccccc2)c(-c2ccc(F)cc2)n1CC[C@@H](O)C[C@@H](O)CC(=O)O from this test.
inactive

I'd appreciate the recorded outcome for CCCCOCCO from this test.
inactive

I'd appreciate the recorded outcome for CNc1ccc(N(CCO)CCO)cc1[N+](=O)[O-] from this test.
inactive

---

System: CCRIS mutagenicity, Ames/micronucleus/aberration tests
Assay: CCRIS mutagenicity studies
Conditions: Test System: E. coli; Strain/Indicator: WP2uvrA/pKM101; Metabolic Activation: None; Method: Preincubation
Activity calls are given as the source filed them. How the calls were made is not given here.
Thanks in advance; please answer with one of these: yes (active), no (inactive)

I'd appreciate the recorded outcome for OCC1CO1 (stereo not given) from this test.
yes

I'd appreciate the recorded outcome for O=C(O)CCSCCC(=O)O from this test.
no

I'd appreciate the recorded outcome for O=C(Cl)c1ccc([N+](=O)[O-])cc1 from this test.
no

I'd appreciate the recorded outcome for OCCOc1ccccc1 from this test.
no

I'd appreciate the recorded outcome for C1=CCCCC1 from this test.
no

---

Tested on: CCRIS mutagenicity, Ames/micronucleus/aberration tests
Experiment: CCRIS mutagenicity studies
Details: Test System: AMES SALMONELLA TYPHIMURIUM; Strain/Indicator: TA100; Metabolic Activation: S-9; Method: STANDARD PLATE
Active and inactive are the calls of the source. The rule behind the calls is not given here.
Thanks in advance; please answer with one of these: true (1) (active), false (0) (inactive)

I'd appreciate the recorded outcome for CCOC(=O)c1ccccc1C(=O)OCC from this test.
false (0)

I'd appreciate the recorded outcome for Nc1snc2ccc([N+](=O)[O-])cc12 from this test.
true (1)

I'd appreciate the recorded outcome for CCCCCC(=O)N=c1sn(C(=O)CCCCC)c2ccc([N+](=O)[O-])cc12 from this test.
true (1)

I'd appreciate the recorded outcome for CCC(C)(C)c1cc(-n2nc3ccccc3n2)c(O)c(C(C)(C)CC)c1 from this test.
false (0)

I'd appreciate the recorded outcome for Nc1ccc(-c2ccc(N)c(F)c2)cc1F from this test.
true (1)

I'd appreciate the recorded outcome for CC(=O)Nc1snc2ccccc12 from this test.
true (1)

I'd appreciate the recorded outcome for Nc1ccc(-c2ccc(N)cc2)cc1 from this test.
false (0)

I'd appreciate the recorded outcome for O=C(CCl)Nc1snc2ccc(Cl)cc12 from this test.
true (1)

I'd appreciate the recorded outcome for Cc1ccc(C=O)o1 from this test.
false (0)

I'd appreciate the recorded outcome for CCC(=O)N=c1sn(C(=O)CC)c2ccc([N+](=O)[O-])cc12 from this test.
true (1)

I'd appreciate the recorded outcome for COc1ccc2cc(CCC(C)=O)ccc2c1 from this test.
false (0)

I'd appreciate the recorded outcome for Cc1ccc2nsc(NC(=O)C(Cl)Cl)c2c1 from this test.
true (1)

I'd appreciate the recorded outcome for CC(=O)O[C@@H]1C(=O)O[C@H]2[C@@H]1OC(=O)[C@@H]2OC(C)=O from this test.
false (0)

I'd appreciate the recorded outcome for O=c1[nH]c(=O)n([C@H]2C[C@H](O)[C@@H](CO)O2)cc1Br from this test.
false (0)

I'd appreciate the recorded outcome for O=Cc1ccccc1O from this test.
false (0)

I'd appreciate the recorded outcome for Nc1ccc(-c2ccc(N)c(Br)c2)cc1Br from this test.
true (1)

I'd appreciate the recorded outcome for CC(=O)c1cc(O)c(C(C)C)c2cc(C)c(-c3c(C)cc4c(C(C)C)c(O)c(O)c(C=O)c4c3O)c(O)c12 from this test.
false (0)

I'd appreciate the recorded outcome for CN(N=O)C(=O)c1c(N(C)N=O)ncn1C from this test.
true (1)

I'd appreciate the recorded outcome for O=C(N=c1sn(C(=O)c2cccc([N+](=O)[O-])c2)c2ccc([N+](=O)[O-])cc12)c1cccc([N+](=O)[O-])c1 from this test.
true (1)

I'd appreciate the recorded outcome for COC1(O[C@H]2CC[C@H]3[C@@H]4CC[C@H]5C[C@@H]6S[C@@H]6C[C@]5(C)[C@H]4CC[C@]23C)CCCC1 from this test.
false (0)

I'd appreciate the recorded outcome for Nc1ccc(/C=C/c2ccc([N+](=O)[O-])cc2)cc1 from this test.
true (1)

I'd appreciate the recorded outcome for CCOc1ccc(C(C)(C)C)cc1NC(=O)C(=O)Nc1ccccc1CC from this test.
false (0)

I'd appreciate the recorded outcome for O[C@@H]([C@H](O)[C@H](O)CBr)[C@H](O)CBr from this test.
true (1)

I'd appreciate the recorded outcome for Cc1snc2ccccc12 from this test.
true (1)

I'd appreciate the recorded outcome for Cc1cccc(OCC(O)CNC(C)(C)C)c1C (stereo not given) from this test.
false (0)

I'd appreciate the recorded outcome for Nc1ccc(Oc2ccc(Cl)cc2Cl)cc1 from this test.
true (1)

I'd appreciate the recorded outcome for Cc1ccc(C)o1 from this test.
false (0)

I'd appreciate the recorded outcome for CCC1(c2ccccc2)C(=O)NC(=O)NC1=O from this test.
false (0)

I'd appreciate the recorded outcome for CCOC(=O)C1(CCCCCCOCc2cccs2)CO1 (stereo not given) from this test.
false (0)

I'd appreciate the recorded outcome for CCCCCNc1snc2ccccc12 from this test.
false (0)
